Test Summary: Acute toxicity (LD50) in mice
Condition Set: mouse, in vivo, ip, intraperitoneal
Experimental Endpoint: LD50

[Q] For the compound shown here, CC(C)n1c(CCN2CCN(c3cccc(C(F)(F)F)c3)CC2)nc2ccc3ccccc3c21.O=C(O)CC(O)(CC(=O)O)C(=O)O , give the reported LD50.
[A] ~600 mg/kg
